These measurements were taken from patent US20240393292A1.

- Tested on: IgE antibodies from patients
- ASSAY: Wheat epitope mapping (2): overlapping 10-amino-acid peptide fragments shifted by one amino acid;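 further: key = sequence deemed particularly important within the common 15-residue sequence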
- Format: binding, human
- CONDITION DESCRIPTION: serum of patient P27 (WDEIA); sequence without X
- Experimental: The peptides to be synthesized were shifted by one amino acid. The library was prepared by the same procedure as described above in (A), and the presence or absence of binding of an IgE antibody present in the serum of a patient to each peptide fragment was measured by the same technique as described above. […]
ENDPOINT NAME: Rank of partial sequence as epitope binding to IgE antibody

// solved cases for Rank of partial sequence as epitope binding to IgE antibody follow
{"columns": ["SUBSTANCE", "ASSAY RESULT"],
 "data": [
  ["1474 (LQPQQPIS; REGION 1..8: note = epitope) [compound 1474]", "Preferably"],
  ["1629 (YNPD; REGION 1..4: note = epitope) [compound 1629]", "Key"],
  ["1628 (YNPDKVP; REGION 1..7: note = epitope) [compound 1628]", "Preferably"],
  ["1472 (YLQPQQPIS; REGION 1..9: note = epitope) [compound 1472]", "Preferably"],
  ["1703 (EAANFT; REGION 1..6: note = epitope) [compound 1703]", "Key"]
]}

Could you now look at the following substance, please?
Consider the substance shown here: 1630 (PDKVPFVPIS; REGION 1..10: note = epitope) [compound 1630] What is its recorded Rank of partial sequence as epitope binding to IgE antibody?
Key
